Target: T1, human IGSF11 (VSIG3) expressed on cells (human, UniProt Q5DX21 23-431)
T1 sequence: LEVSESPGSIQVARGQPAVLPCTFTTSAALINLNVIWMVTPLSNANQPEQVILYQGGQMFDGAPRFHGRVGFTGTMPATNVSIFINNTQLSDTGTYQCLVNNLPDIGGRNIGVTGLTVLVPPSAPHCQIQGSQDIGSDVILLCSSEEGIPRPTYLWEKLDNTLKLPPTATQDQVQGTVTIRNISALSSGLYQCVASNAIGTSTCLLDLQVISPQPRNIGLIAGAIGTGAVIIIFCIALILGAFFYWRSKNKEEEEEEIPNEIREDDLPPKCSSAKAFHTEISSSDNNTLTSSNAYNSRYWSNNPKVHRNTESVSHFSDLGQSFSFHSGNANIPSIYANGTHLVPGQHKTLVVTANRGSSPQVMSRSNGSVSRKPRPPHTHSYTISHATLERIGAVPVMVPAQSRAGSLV
Assay: FACS, M579-A2-luc cells with scrambled control siRNA (SC)
REPORTED PROPERTY: % binding (FACS heat-map) (%)
Just the number please, in %, no unit attached.

| BINDER | REPORTED PROPERTY | REPORTED VALUE |
| --- | --- | --- |
| A-011 (IgG1 format) (antibody, V domains shown, human IgG1 format) VH: QVQLVESGGGVVQPGRSLRLSCAASGFTFSSYAMHWVRQAPGKGLEWVAVISYDGSNKYYADSVKGRFTISRDNSKNTLYLQMNSLRAEDTAVYYCAEGGALNYYGMDVWGQGTTVTVSS VL: SSELTQDPGVSVALGQTVRITCQGDSLRHFYATWYQQKPGQAPILVIYGKNNRPSGIPDRFSGSSSEDTASLTITGAQAEDEADYYCQSRDPRNNHLIFGGGTKLIVL | % binding (FACS heat-map) | 2.05 |

Look up % binding (FACS heat-map) for this binder: A-026 (IgG1 format) (antibody, V domains shown, human IgG1 format) VH: QVQLQESGPGLVKPSQTLSLTCTVSGGSISSGGYYWSWIRQHPGKGLEWIGYIYYSGSTYYNPSLKSRVTISVDTSKNQFSLKLSSVTAADTAVYYCASWSLGTSNHGWFDPWGQGTLVTVSS VL: QSVLTQPPSASGTPGQRVTISCSGSSSNIGSNTVNWYQQLPGTAPKLLISDNNNRPSGVPDRFSGSKSGTSASLAITGLQAEDEADYYCQSYDSNLSGWVFGGGTKLTVL
11.6

What does the data say about its % binding (FACS heat-map)? Entry: A-012 (IgG1 format) (antibody, V domains shown, human IgG1 format) VH: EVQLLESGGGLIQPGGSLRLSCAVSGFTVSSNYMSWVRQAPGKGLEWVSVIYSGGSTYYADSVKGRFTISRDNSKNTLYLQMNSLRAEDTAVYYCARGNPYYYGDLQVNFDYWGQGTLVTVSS VL: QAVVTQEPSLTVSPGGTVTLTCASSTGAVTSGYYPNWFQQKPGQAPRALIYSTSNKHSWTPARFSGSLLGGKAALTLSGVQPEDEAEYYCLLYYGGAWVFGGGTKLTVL
65.4
